Tested on: OATPs
Test: Bidirectional transport in MDCK cell monolayers with selective transporter inhibitors or substrates
Format: in vitro ADME, canine
Settings: dog, with ES 0.05 mM (50 μM), + ES 0.05 mM (OATPs), read-out: ER
parameter-measured: efflux ratio at 120 min, 2 μM
Could you keep your reply to the number by itself?

Form field: reported efflux ratio at 120 min, 2 μM of COc1ccc2c3c([nH]c2c1)C(C)=NCC3
1.07

* * *

Tested on: MDR1
Assay: in vitro
Conditions: human, Caco-2, PappBA, Caco-2, 2 μM, + Verapamil 0.1 mM (MDR1)
parameter-measured: Papp B→A (×10⁻⁶ cm/s)
# output: bare number, implied unit ×10⁻⁶ cm/s

Form field: reported Papp B→A of COc1ccc2c(c1)[nH]c1c(C)nccc12
28.5
